# tgt: T1, Sec8-His (section 8 (Sec8), an antigenic region of CSP-1, tagged with a polyhistidine (His) tag)
# T1 construct: also called Sec8-His antigen
# T1 chain: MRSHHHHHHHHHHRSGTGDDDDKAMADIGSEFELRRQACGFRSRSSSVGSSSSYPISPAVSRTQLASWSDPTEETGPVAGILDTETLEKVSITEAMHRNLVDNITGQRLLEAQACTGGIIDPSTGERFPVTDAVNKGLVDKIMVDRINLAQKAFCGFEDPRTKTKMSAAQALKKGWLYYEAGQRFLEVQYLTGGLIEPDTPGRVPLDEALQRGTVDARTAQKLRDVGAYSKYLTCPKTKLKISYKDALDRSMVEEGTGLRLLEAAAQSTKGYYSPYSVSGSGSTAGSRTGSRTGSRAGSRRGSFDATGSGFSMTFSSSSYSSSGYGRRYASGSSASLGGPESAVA
# experimental-protocol: BLI (Octet), single shot: antibody on anti-human IgG tips, 24 nM Sec8-His
assay-metric: binding result

[[record]]
binder = "humanized anti-CSP-1 antibody, Antibody Number 16 (Table 1) (antibody, human IgG1, V domains shown, also called Antibody 16) VH: EVQLVESGGDLVKPGGSLKLSCAASGFTFSRYGMSWVRQTPDKRLEWVATISIGGTYTYYPDSMKGRFTISRDNAKNTLYLQMSSLKSEDTAMYYCARRGYGNYSYYGMDYWGQGTSVTVSS VL: DIVMTQAAFSNPVTLGTSASISCRSSKSLLHSNGITYLYWYLQKPGQSPQLLIYQMSNLASGVPDRFSSSGSGTDFTLRISRVEAEDVGVYYCAQNLELPLTFGAGTKLELK"
assay_metric = "binding result"
reported = "binds"

[[record]]
binder = "humanized anti-CSP-1 antibody, Antibody Number 5 (Table 1) (antibody, human IgG1, V domains shown, also called Antibody 5) VH: QIQLVQSGPELKKPGETVKISCKASGYTFTDYSMHWVKQAPGKGLKWMGWINTETGEPTYADDFKGRFAFSLETSASTAYLQINNLKNEDTATYFCAPGGFAYWGQGTLVTVSA VL: DIVMTQAAPSVPVTPGESVSISCRSSKSLLHSNGNTYLYWFLQRPGQSPQLLIYRLSNLASGVPDRFSGSGSGTAFTLRISRVEAEDVGVYYCMQHLEYPLTFGAGTKLELK"
assay_metric = "binding result"
reported = "binds"

[[record]]
binder = "humanized anti-CSP-1 antibody, Antibody Number 6 (Table 1) (antibody, human IgG1, V domains shown, also called Antibody 6) VH: QIQLVQSGPELKKPGETVKISCKASGYTFTDYSMHWVKQAPGKGLKWMGWINTETGEPTYADDFKGRFAFSLETSASTAYLQINNLKNEDTATYFCAPGGFAYWGQGTLVTVSA VL: DIVMTQAAPSVPVTPGESVSISCRSSKSLLHSNGNTYLYWFLQRPGQSPQLLIYRISNLASGVPDRFSGSGSGTAFTLRISRVEAEDVGVYYCMQHLEYPLTFGAGTKLELK"
assay_metric = "binding result"
reported = "binds"

